system: SK-MEL-28 melanoma; assay: NCI-60 one-dose screen, 48 h (100 = growth as untreated, 0 = no growth, -100 = all killed); conditions: 10 µM unless noted
Compounds without any hit were thinned out: in the full panel of roughly 83,000, 20% have a hit.
Would you kindly list growth for each of these molecules?
Give bare numbers, in %.

Here are 3 molecules together with their reported answers.
CC(=O)C(N)Cc1ccccc1 (stereo unspecified)    114
O=C(CBr)OCCOC(=O)CBr    79.5
[N-]=[N+]=CC(=O)CCC(=O)C=[N+]=[N-]    112

Go through the items and report each one's growth.
1. C[C@]12CC[C@H](O)C[C@@H]1CC[C@@H]1[C@@H]2CC[C@]2(C)OC(=O)CC[C@@H]12
2. C[C@H](O)CCC(=O)c1ccoc1
3. c1ccc2c(c1)O[As](O[As]1Oc3ccccc3O1)O2

Response:
[105, 115, 44.4]

* * *

tested on: KM12 colon; assay: NCI-60 one-dose screen, 48 h; settings: 10 µM unless noted
About 83,000 compounds went through this panel and 20% of them were active in at least one assay; those are over-represented in the sample as a whole. The source made the active and inactive calls. Rule for the calls: active = growth percent below 10; inactive = the rest.
Entry note: the call must match one of active, inactive

CC1=C2[C@H]3OC(=O)[C@@H](C)[C@@H]3CC[C@@]2(C)C=CC1=O    inactive
N#CC(C#N)=Cc1cccc(F)c1    inactive
C[C@]12CC[C@H](O)C[C@@H]1CC[C@@H]1[C@@H]2CC[C@]2(C)OC(=O)CC[C@@H]12    inactive
Cc1cc(N(CCCl)CCCl)ccc1C=Nc1ccc(-c2csc(-c3ccccc3)n2)cc1    inactive
N#Cc1ccc(Cl)cc1    inactive
Oc1ccccc1C=NCCN=Cc1ccccc1O    inactive
CC(=O)OC1CC2(O)C(CCC3(C)C(c4ccc(=O)oc4)CCC32O)C2(C)CCC(OC3OC(CO)C(O)C(O)C3O)C=C12 (stereo not drawn)    active
Oc1cc(N2CC2)c(O)cc1N1CC1    active
Cc1cc(Br)c([N+](=O)[O-])cc1[N+](=O)[O-]    inactive
Cn1cc(-c2csc(-c3cn(CCCCN4CCOCC4)c4ccc(F)cc34)n2)c2cccnc21    inactive

Request: Assay outcome for C[N+]1(CC#CC[N+]2(C)CCCC2)CCCC1 : what was it?
Response: inactive

Request: Could you please tell me the result logged for C[C@]12CCc3nc(-c4ccc(O)c(O)c4)sc3C1=CC[C@@H]1[C@@H]2CC[C@]2(C)C(=O)CC[C@@H]12 in this assay?
Response: inactive

Request: Field: outcome | Entry: CC[C@H](C)[C@H]1O[C@]2(C=C[C@@H]1C)C[C@@H]1C[C@@H](C/C=C(\C)[C@@H](O[C@H]3C[C@H](OC)[C@@H](O[C@H]4C[C@H](OC)[C@@H](NC)[C@H](C)O4)[C@H](C)O3)[C@@H](C)/C=C/C=C3\CO[C@@H]4[C@H](O)C(C)=C[C@@H](C(=O)O1)[C@]34O)O2
Response: active

* * *

system: RPMI-8226 leukemia; assay: NCI-60 one-dose screen, 48 h (100 = growth as untreated, 0 = no growth, -100 = all killed); settings: 10 µM unless noted
Compounds without any hit were thinned out: in the full panel of roughly 83,000, 20% have a hit. Activity calls are given as the source filed them. How the source made its calls: active means growth percent below 10; inactive means the rest.
EXPERIMENTAL ENDPOINT: growth

C[C@@H]1C/C=C\C(=O)O[C@H](/C=C/C#C/C=C/C(C)(C)[C@@H](O)c2cccc(O)c2Br)[C@@H](C)/C=C/[C@H](C)C[C@H](OC(N)=O)C1    11.3% (inactive)
Cc1cc(Br)c([N+](=O)[O-])cc1[N+](=O)[O-]    120% (inactive)
COc1cc2c(cc1OC)[C@@H]1C(=O)c3ccc4c(c3O[C@@H]1CO2)C[C@H](C(C)C)O4    -9.79% (active)
O=[N+]([O-])c1c(Cl)cc(Cl)c([N+](=O)[O-])c1Cl    90.2% (inactive)
CC1(C)S[C@H]2CC[C@H]3OC(=O)[C@@H]1N23    79.5% (inactive)
COC1C(O)CC(OC2CC(Oc3cc4cc5c(c(O)c4c(O)c3C)C(=O)[C@@H](OC3CC(OC4CC(OC6CC(C)(O)C(OC(C)=O)C(C)O6)C(O)C(C)O4)C(O)C(C)O3)[C@H]([C@H](OC)C(=O)[C@@H](O)[C@@H](C)O)C5)OC(C)C2OC(C)=O)OC1C (some centres not stated)    -30.8% (active)

Now consider the entry below.
Please fill in: growth reported for CC[C@H](C)[C@H](NC(=O)CN(C)C)C(=O)N(C)[C@H](C[C@@H](OC(C)=O)c1nc(C(=O)NC23CC(C(=O)OC)(C2)C3)cs1)C(C)C = 18.8% (inactive)

* * *

system: SF-268 CNS; assay: NCI-60 one-dose screen, 48 h (100 = growth as untreated, 0 = no growth, -100 = all killed); conditions: 10 µM unless noted
Compounds without any hit were thinned out: in the full panel of roughly 83,000, 20% have a hit.
Could you please report measured growth for the items listed next?
One number for each entry, in %.

COc1ccc(O)c2c(=O)c3c(OC)cc4c(c3oc12)[C@@H]1C=CO[C@@H]1O4    54.9
O=C=Nc1ccc(Br)cc1    111
CC1(C)S[C@H]2CC[C@H]3OC(=O)[C@@H]1N23    113
c1ccc(CCN2CCCCC2)nc1    103
Oc1cc(Cl)ccc1Oc1ccc(Cl)cc1Cl    21.5

Batch: growth for all items listed.
1. O=c1[nH]c(=O)[nH]c(=O)[nH]1
2. C/C(=C(\c1ccc(OCCN2CCOCC2)cc1)c1ccc(OC(=O)Cc2ccccc2)cc1)c1ccc(Cl)cc1
3. COCC1OC2OC3C(COC)OC(OC4C(COC)OC(OC5C(COC)OC(OC6C(COC)OC(OC7C(COC)OC(OC8C(COC)OC(OC1C(O)C2O)C(O)C8O)C(O)C7O)C(O)C6O)C(O)C5O)C(O)C4O)C(O)C3O (stereo unspecified) (tested in a mixture with another compound)
4. CCCN1C(=O)NC(=O)C(CC)(N2C(=O)c3c(F)c(F)c(F)c(F)c3C2=O)C1=O (stereo unspecified)
5. CCC(=O)C(CC(C)[N+](C)(C)C)(c1ccccc1)c1ccccc1 (stereo unspecified)
6. O=C/C=C/c1ccco1
7. COC[C@H]1OC(=O)c2coc3c2[C@@]1(C)C1=C(C3=O)[C@@H]2CCC(=O)[C@@]2(C)C[C@H]1OC(C)=O

Response:
116
90.1
105
-82.5
103
102
51.8

* * *

tested on: PC-3 prostate; experiment: NCI-60 one-dose screen, 48 h; settings: 10 µM unless noted
The panel holds about 83,000 compounds, 20% with a hit somewhere; the sample as a whole holds those more often. Active and inactive are the calls of the source. The calls were made as follows: active = growth percent below 10; inactive = the rest.
Your answer must be one of the following: active, inactive

// below: answered compounds
O=C(O)C(F)F    inactive
C=CC1CN2CCC1CC2C(O)c1ccnc2ccccc12 (stereo not given)    inactive
C[N+]1(CC#CC[N+]2(C)CCCC2)CCCC1    inactive

Here is another compound to look at.
Request: How was C#COc1cccc(Nc2ncnc3cc(NC(=O)CF)ccc23)c1 classified in this test?
Response: inactive

* * *

system: NCI-H322M lung; experiment: NCI-60 one-dose screen, 48 h; details: 10 µM unless noted
Compounds without any hit were thinned out: in the full panel of roughly 83,000, 20% have a hit. Activity calls are given as the source filed them. Rule for the calls: active = growth percent below 10; inactive = the rest.
Allowed answers: Y = active, N = inactive

Field: example entries. Status: answers known.
O=[N+]([O-])c1ccc2scc3c4ccccc4nc-3c2c1    N
CCOP(=O)(NC)OCC    N
COc1cc(C2C3=C(CCCC3=O)N(CCO)c3cc4c(cc32)CCC4)cc(OC)c1OC (stereo not given)    N
N#CCCc1ccccc1    N
CC(=O)C(N)Cc1ccccc1 (stereo not given)    N
CC1=CC(=Nc2ccc(N(CCCl)CCCl)cc2)C=C(C)C1=O    N
C[C@]12CC[C@@H](OC(=O)N(CCCl)N=O)C[C@@H]1CC[C@@H]1[C@@H]2CC[C@]2(C)C(=O)CC[C@@H]12    N
CC/C(=C(\c1ccc(OCCN2CCOCC2)cc1)c1ccc(OC(=O)Cc2ccccc2)cc1)c1ccc(Cl)cc1    N

Request: Which outcome did this test record for the molecule COc1cc2c(cc1OC)-c1c3c(cc4c1[C@@H](C2)N(C)CC4)OCO3 ?
Response: N

Request: Look up the recorded call for O=P1(N(CCCl)CCCl)NCCCO1 (stereo not given) in this test.
Response: N

Request: Which outcome was assigned to CCCCCCCCCCCCCCCCCC1OCC(COC(=O)O[C@@H](C(=O)O[C@H]2C[C@@]3(O)[C@@H](OC(=O)c4ccccc4)[C@@H]4[C@]5(OC(C)=O)CO[C@@H]5C[C@H](O)[C@@]4(C)C(=O)[C@H](OC(C)=O)C(=C2C)C3(C)C)[C@@H](NC(=O)c2ccccc2)c2ccccc2)O1 (stereo not given in full) in this test?
Response: N

Request: Lab log entry: CC1=CC(=O)CCC12CCOC2=O (stereo not given) — outcome as called in the assay?
Response: N

Request: Status in this test for C[C@]12CC[C@H]3[C@@H](C[C@@H]4SC(Nc5ccccc5)=N[C@@]45C/C(=N/O)CC[C@]35C)[C@@H]1CCC2=O ?
Response: N

Request: I would be grateful if you could indicate the recorded call for N#CCc1ccc(CC#N)cc1 .
Response: N

Request: Just curious, what result did O=C(O)C(Br)CBr (stereo not given) get here?
Response: N

Request: Lab log entry: CC(C)COC(=O)Cc1ccccc1 — outcome as called in the assay?
Response: N

Request: Hi, sorry to bother you, what did the test record for O=c1[nH]c(=O)[nH]c(=O)[nH]1 ?
Response: N

Request: How was COc1ccc(N)cc1N classified in this test?
Response: N

Request: Just curious, what result did O=C=Nc1ccc(Br)cc1 get here?
Response: N

Request: Could you please tell me the result logged for C[C@]12CCC3[C@@H](C[C@@H]4SC(Nc5ccccc5)=N[C@@]45CC(=O)CC[C@]35C)[C@@H]1CCC2=O (stereo not given in full) in this assay?
Response: N
